Source: ChEMBL document CHEMBL5120846

Target: Casein kinase I isoform delta (Homo sapiens, UniProt P48730)
Sequence (P48730 whole entry, canonical isoform): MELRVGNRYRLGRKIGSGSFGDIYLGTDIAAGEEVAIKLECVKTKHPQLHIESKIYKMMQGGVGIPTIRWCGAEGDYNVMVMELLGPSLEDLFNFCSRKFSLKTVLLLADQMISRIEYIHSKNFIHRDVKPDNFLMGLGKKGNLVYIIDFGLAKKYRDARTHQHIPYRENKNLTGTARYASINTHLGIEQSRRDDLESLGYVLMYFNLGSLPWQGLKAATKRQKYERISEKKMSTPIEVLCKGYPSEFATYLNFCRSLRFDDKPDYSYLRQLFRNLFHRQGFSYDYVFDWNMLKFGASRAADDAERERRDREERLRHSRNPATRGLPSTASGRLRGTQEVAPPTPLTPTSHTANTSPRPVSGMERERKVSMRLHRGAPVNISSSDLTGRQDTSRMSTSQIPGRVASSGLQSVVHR
Assay: Inhibition of CSNK1D (unknown origin)
MEASURED_QUANTITY: IC50 (nM)
Answer with a number only, understood to be in nM.

[ask] Write down the reported IC50 of Cn1ncc(-c2nc(N[C@H]3CC[C@H](N)CC3)ncc2Cl)c1CC1CC1 [BTX-A51] , test system: Casein kinase I isoform delta (Homo sapiens, UniProt P48730).
[reply] 1.8

* * *

Experiment: Inhibition of CDK6/Cyclin D (unknown origin) expressed in baculovirus infected insect cells using GST-tagged Rb protein as substrate incubated for 15 mins in presence of [gamma-32P]ATP by beta-plate reader method
Set-up: species or system Homo sapiens
MEASURED_QUANTITY: IC50
# output: number + unit

[ask] What value of IC50 has been recorded for this entry: O=c1ccc2cnc(Nc3ccc(N4CCC(CCCO)CC4)cc3)nc2n1C1CC2CCC1C2 (stereo unspecified)
[reply] 13 nM

* * *

Target: Cyclin-dependent kinase 4 (Homo sapiens)
Sequence (P11802 whole entry, the tested form may be a part): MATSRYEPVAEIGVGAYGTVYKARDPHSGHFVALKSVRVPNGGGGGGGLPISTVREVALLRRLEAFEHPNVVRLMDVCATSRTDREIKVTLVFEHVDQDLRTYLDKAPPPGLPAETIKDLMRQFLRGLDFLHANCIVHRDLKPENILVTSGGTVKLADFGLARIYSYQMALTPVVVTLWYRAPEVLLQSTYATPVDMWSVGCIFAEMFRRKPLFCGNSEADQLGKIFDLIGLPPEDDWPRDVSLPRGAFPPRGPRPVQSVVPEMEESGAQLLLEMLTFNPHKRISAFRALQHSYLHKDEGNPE
Assay: Inhibition of human full-length recombinant CDK4 (1 to 303 residues) expressed in baculovirus infected Sf21 insect cells in presence of ATP by enzymatic assay
MEASURED_QUANTITY: pIC50
# pIC50 = -log10(concentration in molar units)

[ask] What value of pIC50 has been recorded for this entry: CC[C@@H](Nc1nc(NCc2cnc(C)cc2C)c2ncn(C(C)C)c2n1)[C@H](C)O
[reply] 7.59

* * *

Target: Casein kinase I isoform epsilon (Homo sapiens, UniProt P49674)
Sequence (P49674 whole entry, canonical isoform): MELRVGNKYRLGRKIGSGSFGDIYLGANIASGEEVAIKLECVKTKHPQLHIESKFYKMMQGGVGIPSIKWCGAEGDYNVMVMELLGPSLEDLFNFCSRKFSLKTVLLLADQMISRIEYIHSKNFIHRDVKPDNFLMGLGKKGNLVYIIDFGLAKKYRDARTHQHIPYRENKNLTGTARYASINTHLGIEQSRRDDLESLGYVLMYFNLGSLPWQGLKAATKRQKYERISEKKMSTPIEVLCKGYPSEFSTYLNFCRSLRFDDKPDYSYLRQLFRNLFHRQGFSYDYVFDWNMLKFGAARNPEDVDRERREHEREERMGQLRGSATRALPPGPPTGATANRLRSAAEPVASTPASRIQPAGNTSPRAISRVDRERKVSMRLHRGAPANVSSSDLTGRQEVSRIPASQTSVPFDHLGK
Assay: Inhibition of CSNK1E (unknown origin)
MEASURED_QUANTITY: pIC50
# pIC50 = -log10(concentration in molar units)

[ask] What value of pIC50 has been recorded for this entry: Cn1ncc(-c2nc(N[C@H]3CC[C@H](N)CC3)ncc2Cl)c1CC1CC1
[reply] 8.36

* * *

// values below are reported pIC50
Target: Cyclin-dependent kinase 4/cyclin D1 (Homo sapiens, UniProt P11802)
Sequence (P11802 whole entry): as the sequence (P11802 whole entry, the tested form may be a part) above
Sequence (P24385 whole entry, further chain): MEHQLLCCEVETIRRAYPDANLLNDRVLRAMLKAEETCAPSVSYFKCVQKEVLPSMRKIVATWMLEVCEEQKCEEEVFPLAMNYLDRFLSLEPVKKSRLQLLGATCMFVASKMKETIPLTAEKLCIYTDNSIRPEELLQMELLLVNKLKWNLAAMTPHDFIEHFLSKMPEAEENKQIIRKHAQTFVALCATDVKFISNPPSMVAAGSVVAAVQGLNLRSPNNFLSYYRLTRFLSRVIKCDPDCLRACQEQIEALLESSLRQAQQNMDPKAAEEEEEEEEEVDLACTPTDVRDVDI
Assay: Inhibition of CDK4/Cyclin D1 (unknown origin)
Format: protein-complex assay
# pIC50 = -log10(concentration in molar units)

Sample records with pIC50:
COMPOUND: CN1CC[C@@H](c2c(O)cc(O)c3c2OC(c2ccccc2I)CC3=O)[C@@H](O)C1 (stereo not given in full)
pIC50: 8.60

COMPOUND: CN1CC[C@@H](c2c(O)cc(O)c3c2OC(c2ccc(Cl)cc2)CC3=O)[C@@H](O)C1 (stereo not given in full)
pIC50: 9.26

COMPOUND: CN1CC=C(c2c(O)cc(O)c3c2NC(c2ccccc2)CC3=O)CC1 (stereo not given)
pIC50: 7.36

COMPOUND: Cc1cccc(C2CC(=O)c3c(O)cc(O)c([C@@H]4CCN(C)C[C@@H]4O)c3O2)c1 (stereo not given in full)
pIC50: 9.09

[ask] What value of pIC50 has been recorded for this entry: CN1CCC(c2c(O)cc(O)c3c2O/C(=C\c2ccccc2)C3=O)CC1
[reply] 8.66

* * *

Test: Inhibition of CDK4/cyclin D (unknown origin) in presence of [32P]ATP by radiometric assay
Parameters: species or system Homo sapiens
MEASURED_QUANTITY: pIC50
# pIC50 = -log10(concentration in molar units)

[ask] What value of pIC50 has been recorded for this entry: CCNCc1cncc(-c2ccc3[nH]nc(-c4nc5c(F)cc(F)cc5[nH]4)c3c2)c1C
[reply] 8.54

* * *

Molecular target: CDK9/cyclin T1 (Homo sapiens)
Assay type: cell-based, T-cell
MEASURED_QUANTITY: pIC50
# pIC50 = -log10(concentration in molar units)

[ask] What value of pIC50 has been recorded for this entry: Cn1ncc(-c2nc(N[C@H]3CC[C@H](N)CC3)ncc2Cl)c1CC1CC1
[reply] 8.40

* * *

Molecular target: Cyclin-dependent kinase 7 (Homo sapiens, UniProt P50613)
Sequence (P50613 whole entry): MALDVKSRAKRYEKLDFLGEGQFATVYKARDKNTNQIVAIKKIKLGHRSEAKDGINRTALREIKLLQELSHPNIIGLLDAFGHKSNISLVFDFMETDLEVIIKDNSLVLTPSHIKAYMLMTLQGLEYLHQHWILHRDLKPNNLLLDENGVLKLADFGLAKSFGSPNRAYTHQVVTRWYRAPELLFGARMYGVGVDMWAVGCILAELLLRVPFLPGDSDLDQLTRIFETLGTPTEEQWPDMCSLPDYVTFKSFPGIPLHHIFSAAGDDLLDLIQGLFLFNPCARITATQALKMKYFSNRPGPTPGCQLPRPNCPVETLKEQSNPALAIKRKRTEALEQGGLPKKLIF
Test: Inhibition of CDK7 (unknown origin) using 5-FAM-tagged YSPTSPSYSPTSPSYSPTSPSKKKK peptide as substrate
MEASURED_QUANTITY: pIC50
# pIC50 = -log10(concentration in molar units)

[ask] What value of pIC50 has been recorded for this entry: CN(C)/C=C/CC(=O)Nc1ccc(C(=O)N[C@@]2(C)CCC[C@@H](Nc3ncc(Cl)c(-c4c[nH]c5ccccc45)n3)C2)nc1
[reply] 7.76

* * *

Target: Cyclin-dependent kinase 4/cyclin D1 (Homo sapiens)
Test: Inhibition of CDK4/Cyclin D1 (unknown origin)
Assay type: protein-complex assay
Rule: IC50 below 1 nM gives yes. Equal to or above 1 nM gives no.

Would you please look over these solved cases?
MOLECULE: CN1CC[C@@H](c2c(O)cc(O)c3c2OC(c2ccccc2Br)CC3=O)[C@@H](O)C1 (some centres undefined)
GROUP: yes

MOLECULE: CCc1ccccc1C1CC(=O)c2c(O)cc(O)c([C@@H]3CCN(C)C[C@@H]3O)c2O1 (some centres undefined)
GROUP: yes

MOLECULE: CN1CC[C@@H](c2c(O)cc(O)c3c2OC(c2cccc(Cl)c2)CC3=O)[C@@H](O)C1 (some centres undefined)
GROUP: no

MOLECULE: CN1CC[C@@H](c2c(O)cc(O)c3c2OC(Sc2cccc(Cl)c2)CC3=O)[C@@H](O)C1 (some centres undefined)
GROUP: no

MOLECULE: CN1CC[C@@H](c2c(O)cc(O)c3c2OC(c2ccc(Cl)cc2Cl)CC3=O)[C@@H](O)C1 (some centres undefined)
GROUP: no

[ask] # TODO verify IC50 < 1 nM strictly for this molecule: CN1CC[C@@H](c2c(O)cc(O)c3c2OC(c2ccccc2Cl)CC3=O)[C@@H](O)C1 (some centres undefined)
[reply] yes

[ask] Follow-up item: O=C1OC(c2ccccc2Cl)Cc2c1c(O)cc(O)c2-c1ccncc1 (centres undefined)
[reply] no

[ask] Follow-up item: CN1CC[C@@H](c2c(O)cc(O)c3c2OC(c2ccncc2)CC3=O)[C@@H](O)C1 (some centres undefined)
[reply] yes

* * *

// values below are reported pIC50
Target: Cyclin-dependent kinase 4/cyclin D1 (Homo sapiens, UniProt P11802)
Test: Inhibition of CDK4/Cyclin D1 (unknown origin)
Type: protein-complex assay
# pIC50 = -log10(concentration in molar units)

MOLECULE: CN1CC[C@@H](c2c(O)cc(O)c3c2OC(C2CCCCC2)CC3=O)[C@@H](O)C1 (some centres undefined)
SYSTEM_NAME: Cyclin-dependent kinase 4/cyclin D1 (Homo sapiens, UniProt P11802)
MEASURED_QUANTITY: pIC50
OBSERVED_VALUE: 8.15

Next item in the queue.
[ask] What value of pIC50 has been recorded for this entry: CN1CCC(c2c(O)cc(O)c3c2O/C(=C\c2ccc(S(N)(=O)=O)cc2)C3=O)CC1
[reply] 8.73

* * *

Molecular target: CDK9/cyclin T1 (Homo sapiens, UniProt P50750)
Sequence (O60563 whole entry): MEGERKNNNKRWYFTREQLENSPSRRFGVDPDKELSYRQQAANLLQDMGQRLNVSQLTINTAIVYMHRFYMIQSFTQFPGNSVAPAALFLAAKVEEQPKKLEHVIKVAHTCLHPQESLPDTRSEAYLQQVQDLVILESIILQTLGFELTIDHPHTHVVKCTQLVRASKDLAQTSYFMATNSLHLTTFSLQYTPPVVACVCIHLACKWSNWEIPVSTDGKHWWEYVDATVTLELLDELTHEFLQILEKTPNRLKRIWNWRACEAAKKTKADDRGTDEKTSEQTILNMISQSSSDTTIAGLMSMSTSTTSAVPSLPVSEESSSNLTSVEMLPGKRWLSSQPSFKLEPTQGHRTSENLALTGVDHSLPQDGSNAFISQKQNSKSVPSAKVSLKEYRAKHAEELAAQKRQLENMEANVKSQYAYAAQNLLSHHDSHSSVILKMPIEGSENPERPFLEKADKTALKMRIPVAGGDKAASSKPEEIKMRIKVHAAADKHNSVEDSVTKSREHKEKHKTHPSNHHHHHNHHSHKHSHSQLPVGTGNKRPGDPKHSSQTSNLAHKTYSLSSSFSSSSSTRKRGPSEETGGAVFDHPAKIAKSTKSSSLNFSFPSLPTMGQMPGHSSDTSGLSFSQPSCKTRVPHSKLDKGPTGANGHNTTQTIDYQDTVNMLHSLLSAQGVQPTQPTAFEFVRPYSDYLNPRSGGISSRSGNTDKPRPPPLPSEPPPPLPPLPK
Sequence (P50750 whole entry): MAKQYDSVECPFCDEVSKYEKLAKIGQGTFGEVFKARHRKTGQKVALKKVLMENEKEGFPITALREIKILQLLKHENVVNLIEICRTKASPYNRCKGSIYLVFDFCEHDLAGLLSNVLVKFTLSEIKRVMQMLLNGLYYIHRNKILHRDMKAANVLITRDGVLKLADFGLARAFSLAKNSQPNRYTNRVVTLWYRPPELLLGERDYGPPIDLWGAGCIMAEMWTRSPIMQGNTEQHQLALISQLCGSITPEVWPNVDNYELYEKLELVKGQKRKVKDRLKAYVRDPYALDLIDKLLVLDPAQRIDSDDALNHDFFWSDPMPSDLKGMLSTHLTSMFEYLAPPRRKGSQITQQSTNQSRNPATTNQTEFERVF
Assay: Inhibition of CDK9/Cyclin T1 (unknown origin)
Format: protein-complex assay
MEASURED_QUANTITY: IC50 (nM)
Answer with a number only, understood to be in nM.

[ask] What value of IC50 has been recorded for this entry: CN1CC[C@@H](c2c(OP(=O)(O)O)cc(O)c3c(=O)cc(-c4ccccc4Cl)oc23)[C@@H](O)C1
[reply] 14

* * *

Target: Cyclin-dependent kinase 7 (Homo sapiens)
Experiment: Inhibition of CDK7 (unknown origin) incubated for 180 mins by LanthaScreen Eu kinase binding assay
MEASURED_QUANTITY: IC50 (nM)
Answer with a number only, understood to be in nM.

[ask] What value of IC50 has been recorded for this entry: CN(C)/C=C/CC(=O)Nc1ccc(C(=O)Nc2cccc(Nc3ncc(Cl)c(-c4cc5ccccc5[nH]4)n3)c2)cc1
[reply] 3.2

* * *

Target: Cyclin-dependent kinase 4/cyclin D1 (Homo sapiens, UniProt P11802)
Assay: Inhibition of CDK4/Cyclin D1 (unknown origin)
Type: protein-complex assay
Rule: IC50 below 0.02 µM gives YES. Equal to or above 0.02 µM gives NO.

COMPOUND: CN1CC[C@@H](c2c(O)cc(O)c3c2OC(c2ccccc2F)CC3=O)[C@@H](O)C1 (some centres not stated)
GROUP: YES
//
COMPOUND: O=C1CC(c2ccccc2Cl)Oc2c1c(O)cc(O)c2[C@@H]1CCCC[C@@H]1O (some centres not stated)
GROUP: NO
//
COMPOUND: CN1CC=C(c2c(O)cc(O)c3c2CC(c2ccccc2Cl)OC3=O)CC1 (configuration not stated)
GROUP: NO
//
COMPOUND: O=C1OC(c2ccccc2Cl)Cc2c1c(O)cc(O)c2-c1cncnc1 (configuration not stated)
GROUP: NO
//
COMPOUND: CN1CC[C@@H](O)[C@H](c2c(O)cc(O)c3c2OC(c2ccccc2Cl)CC3=O)C1 (some centres not stated)
GROUP: NO

[ask] # TODO verify IC50 < 0.02 µM strictly for this compound: CN1CC[C@H](O)[C@H](c2c(O)cc(O)c3c2OC(c2ccccc2Cl)CC3=O)C1 (some centres not stated)
[reply] NO

[ask] Follow-up item: CN1CC[C@@H](c2c(O)cc(O)c3c2OC(SC(C)(C)C)CC3=O)[C@@H](O)C1 (some centres not stated)
[reply] YES
